Entry source: ChEMBL document CHEMBL2440013

assay: Selectivity index, ratio of CTD50 for MDCK cells to EC50 for Influenza A virus California/07/09(H1N1) pdm09 infected in MDCK cells; type: toxicity, cell-based; details: dog, read-out: Selectivity Index
Where a name gives a salt, the structure may show the parent alone.
Entries and their measured selectivity ratio follow.

# compound, selectivity ratio
measured = [
    ("CC[N+](CC)(CCCCCC[N+](CC)(CC)CC/N=C1\\C[C@H]2CC[C@]1(C)C2(C)C)CC/N=C1\\C[C@H]2CC[C@]1(C)C2(C)C.[Br-].[Br-]", 21),
    ("CC[N+](CC)(CCCCC[N+](CC)(CC)CC/N=C1\\C[C@H]2CC[C@]1(C)C2(C)C)CC/N=C1\\C[C@H]2CC[C@]1(C)C2(C)C", 87),
    ("CC(N)C12CC3CC(CC(C3)C1)C2 (configuration not stated) [RIMANTADINE HYDROCHLORIDE]", 5),
    ("CC[N+](CC)(CCCCCCCCC[N+](CC)(CC)CC/N=C1\\C[C@H]2CC[C@]1(C)C2(C)C)CC/N=C1\\C[C@H]2CC[C@]1(C)C2(C)C", 82),
    ("CC[N+](CC)(CCCCCCCCCCCC[N+](CC)(CC)CC/N=C1\\C[C@H]2CC[C@]1(C)C2(C)C)CC/N=C1\\C[C@H]2CC[C@]1(C)C2(C)C", 2),
    ("CC[N+](CC)(CC/N=C1\\C[C@H]2CC[C@]1(C)C2(C)C)Cc1ccc(C[N+](CC)(CC)CC/N=C2\\C[C@H]3CC[C@]2(C)C3(C)C)cc1", 33),
    ("CC[N+](CC)(CCCCCCCCCC[N+](CC)(CC)CC/N=C1\\C[C@H]2CC[C@]1(C)C2(C)C)CC/N=C1\\C[C@H]2CC[C@]1(C)C2(C)C", 5),
    ("CCN(CC)CC/N=C1\\C[C@H]2CC[C@]1(C)C2(C)C", 81),
    ("NC12CC3CC(CC(C3)C1)C2", 4),
    ("CC[N+](CC)(CC)CC/N=C1\\C[C@H]2CC[C@]1(C)C2(C)C", 13),
    ("CC[N+](CC)(CCCCCCCC[N+](CC)(CC)CC/N=C1\\C[C@H]2CC[C@]1(C)C2(C)C)CC/N=C1\\C[C@H]2CC[C@]1(C)C2(C)C", 42),
    ("CC12CCC(CC1=O)C2(C)C (single isomer, unassigned; (+))", 2),
]

---

experiment: Toxicity in Escherichia coli BL21(DE3) expressing pET36b-gfp assessed as inhibition of IPTG-induced reporter protein GFP synthesis at 2 uM after 1.5 hrs by fluorophotometry relative to control; conditions: Escherichia coli BL21(DE3) cells expressing pET36b-gfp, read-out: Activity
property.name: inhibition at 1.5 h, 2 µM (%)

# compound, property.name, value.observed
data = [
    ("CC12CCC(CC1=O)C2(C)C (single isomer, unassigned; (+))", "inhibition at 1.5 h, 2 µM", 6),
]

---

assay: Antiviral activity against Influenza virus A/California/07/09 (H1N1)pdm09 infected in MDCK cells assessed as inhibition of viral replication incubated for 1 hr prior to viral infection measured after 48 hrs by hemagglutination reaction; assay type: functional, cell-based, Influenza A virus (A/California/07/2009(H1N1)); settings: Influenza A virus, pdm09, MDCK
Where a name gives a salt, the structure may show the parent alone.
Entries and their measured EC50 follow.

# molecule, EC50 (µM)
measured = [
    ("CC[N+](CC)(CC/N=C1\\C[C@H]2CC[C@]1(C)C2(C)C)Cc1ccc(C[N+](CC)(CC)CC/N=C2\\C[C@H]3CC[C@]2(C)C3(C)C)cc1", 43.4),
    ("CC[N+](C)(CC)CC/N=C1\\C[C@H]2CC[C@]1(C)C2(C)C", 40.4),
    ("CC[N+](CC)(CCCCCCCCC[N+](CC)(CC)CC/N=C1\\C[C@H]2CC[C@]1(C)C2(C)C)CC/N=C1\\C[C@H]2CC[C@]1(C)C2(C)C", 6.9),
    ("CC(N)C12CC3CC(CC(C3)C1)C2 (stereo unspecified) [RIMANTADINE HYDROCHLORIDE]", 67),
    ("CC[N+](CC)(CCCCCCCC[N+](CC)(CC)CC/N=C1\\C[C@H]2CC[C@]1(C)C2(C)C)CC/N=C1\\C[C@H]2CC[C@]1(C)C2(C)C", 13.2),
    ("CCN(CC)CC/N=C1\\C[C@H]2CC[C@]1(C)C2(C)C", 10),
    ("CC[N+](CC)(CCCCC[N+](CC)(CC)CC/N=C1\\C[C@H]2CC[C@]1(C)C2(C)C)CC/N=C1\\C[C@H]2CC[C@]1(C)C2(C)C", 14.7),
    ("CC[N+](CC)(CC)CC/N=C1\\C[C@H]2CC[C@]1(C)C2(C)C", 140),
    ("CC[N+](CC)(CCCCCCCCCC[N+](CC)(CC)CC/N=C1\\C[C@H]2CC[C@]1(C)C2(C)C)CC/N=C1\\C[C@H]2CC[C@]1(C)C2(C)C", 55.3),
    ("CC[N+](CC)(CCCCCCCCCCCC[N+](CC)(CC)CC/N=C1\\C[C@H]2CC[C@]1(C)C2(C)C)CC/N=C1\\C[C@H]2CC[C@]1(C)C2(C)C", 59.9),
    ("CC[N+](CC)(CCCCCC[N+](CC)(CC)CC/N=C1\\C[C@H]2CC[C@]1(C)C2(C)C)CC/N=C1\\C[C@H]2CC[C@]1(C)C2(C)C.[Br-].[Br-]", 81.2),
]

---

test: Toxicity in Escherichia coli BL21(DE3) expressing pET36b-gfp assessed as inhibition of IPTG-induced reporter protein GFP synthesis at 150 uM after 1.5 hrs by fluorophotometry relative to control; conditions: Escherichia coli BL21(DE3) cells expressing pET36b-gfp, read-out: Activity
property.name: inhibition at 1.5 h, 150 µM

# item.smiles, value.observed
rows = [
    ("CC[N+](CC)(CCCCCCCCCCCC[N+](CC)(CC)CC/N=C1\\C[C@H]2CC[C@]1(C)C2(C)C)CC/N=C1\\C[C@H]2CC[C@]1(C)C2(C)C", "89%"),
    ("CC[N+](CC)(CCCCCCCCCC[N+](CC)(CC)CC/N=C1\\C[C@H]2CC[C@]1(C)C2(C)C)CC/N=C1\\C[C@H]2CC[C@]1(C)C2(C)C", "78%"),
    ("CC[N+](CC)(CCCCCCCC[N+](CC)(CC)CC/N=C1\\C[C@H]2CC[C@]1(C)C2(C)C)CC/N=C1\\C[C@H]2CC[C@]1(C)C2(C)C", "67%"),
    ("CC[N+](CC)(CCCCCCCCC[N+](CC)(CC)CC/N=C1\\C[C@H]2CC[C@]1(C)C2(C)C)CC/N=C1\\C[C@H]2CC[C@]1(C)C2(C)C", "65%"),
]

---

test: Cytotoxicity against MDCK cells after 48 hrs by MTT assay; type: cell-based, Canis lupus familiaris; settings: dog, read-out: CTD50
Counter-ions that a name gives are not always drawn.
Rule for this label: Fulfilled means CC50 at 48 h is less than 1 mM; Not fulfilled means CC50 at 48 h is at least 1 mM.

# compound, group.label
rows = [
    ("CC[N+](CC)(CC/N=C1\\C[C@H]2CC[C@]1(C)C2(C)C)Cc1ccc(C[N+](CC)(CC)CC/N=C2\\C[C@H]3CC[C@]2(C)C3(C)C)cc1", "Not fulfilled"),
    ("CC[N+](CC)(CCCCCCCCC[N+](CC)(CC)CC/N=C1\\C[C@H]2CC[C@]1(C)C2(C)C)CC/N=C1\\C[C@H]2CC[C@]1(C)C2(C)C", "Fulfilled"),
    ("CCN(CC)CC/N=C1\\C[C@H]2CC[C@]1(C)C2(C)C", "Fulfilled"),
    ("CC[N+](CC)(CCCCC[N+](CC)(CC)CC/N=C1\\C[C@H]2CC[C@]1(C)C2(C)C)CC/N=C1\\C[C@H]2CC[C@]1(C)C2(C)C", "Not fulfilled"),
    ("CC(N)C12CC3CC(CC(C3)C1)C2 (centres undefined) [RIMANTADINE HYDROCHLORIDE]", "Fulfilled"),
    ("CC[N+](C)(CC)CC/N=C1\\C[C@H]2CC[C@]1(C)C2(C)C", "Not fulfilled"),
    ("NC12CC3CC(CC(C3)C1)C2", "Fulfilled"),
    ("CC[N+](CC)(CCCCCC[N+](CC)(CC)CC/N=C1\\C[C@H]2CC[C@]1(C)C2(C)C)CC/N=C1\\C[C@H]2CC[C@]1(C)C2(C)C.[Br-].[Br-]", "Not fulfilled"),
    ("CC[N+](CC)(CCCCCCCCCCCC[N+](CC)(CC)CC/N=C1\\C[C@H]2CC[C@]1(C)C2(C)C)CC/N=C1\\C[C@H]2CC[C@]1(C)C2(C)C", "Fulfilled"),
    ("CC[N+](CC)(CC)CC/N=C1\\C[C@H]2CC[C@]1(C)C2(C)C", "Not fulfilled"),
    ("CC12CCC(CC1=O)C2(C)C (single isomer, unassigned; (+))", "Not fulfilled"),
    ("CC[N+](CC)(CCCCCCCC[N+](CC)(CC)CC/N=C1\\C[C@H]2CC[C@]1(C)C2(C)C)CC/N=C1\\C[C@H]2CC[C@]1(C)C2(C)C", "Fulfilled"),
    ("CC[N+](CC)(CCCCCCCCCC[N+](CC)(CC)CC/N=C1\\C[C@H]2CC[C@]1(C)C2(C)C)CC/N=C1\\C[C@H]2CC[C@]1(C)C2(C)C", "Fulfilled"),
    ("CC(N)C1C[C@@H]2CC[C@H]1C2 (some centres undefined)", "Not fulfilled"),
]
